Molecular target: human ether-à-go-go-related gene (hERG) potassium channel (human);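 note: peak tail current of the secondary pulse compared with the same well before compound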
Assay: primary screen, population patch clamp on CHO cells stably expressing hERG; higher = less effect of the substance
Method: Briefly, Chinese hamster ovary (CHO) cells stably expressing the hERG channel were dislodged from tissue culture flasks and dispensed into PPC plates. […] During the recording, background leak currents were estimated by a 100 ms step to -80 mV from an initial holding potential of -70 mV and subtracted from the subsequent current measurement. The campaign was conducted in two phases using slight differences in recording protocol. […]
Hit rate of the full screen: of about 310,000 compounds, about 14,000 (4.5%) showed an effect of 50% or more. Effects have a minus sign here. The list comes from a sample in which strong results are over-represented; it also holds close analogues and randomly drawn compounds.
Assign class by hERG current change (%, negative = inhibition) at 10uM: not lower than -10% means true; lower than -10% means false.

Task: Tell me whether hERG current change (%, negative = inhibition) at 10uM is at least -10% here: Cc1nn(C)c(=O)n1N(C)c1ncc(C(F)(F)F)cc1Cl
Output: true

Task: Item CC(=O)N1c2c(cc(Br)cc2S(=O)(=O)NCC2COc3ccccc3O2)CC1C (stereo not shown) with hERG current change (%, negative = inhibition) at 10uM of -10% or above?
Output: false

Task: API: above_or_equal(metric=hERG current change (%, negative = inhibition) at 10uM, cutoff=-10%) for item COc1ccc(CN(C)C(=O)Cc2ccc(OC)c(S(=O)(=O)N3CCOCC3)c2)cc1
Output: false

Task: Does hERG current change (%, negative = inhibition) at 10uM meet or surpass -10% for CCOC(=O)C1CCCN(CCC(=O)Nc2ccccc2)C1.Cl (stereo not shown) ?
Output: true

Task: Determine whether measured hERG current change (%, negative = inhibition) at 10uM meets or exceeds -10% for CCOC(=O)C1CCCN(CCC(=O)Nc2cc(C)ccc2C)C1.Cl (stereo not shown)
Output: false

Task: Exam item: decide whether the reported hERG current change (%, negative = inhibition) at 10uM for CCOC(=O)C1CCCN(CCC(=O)Nc2ccc(C)c(C)c2)C1.Cl (stereo not shown) is at least -10%.
Output: false

Task: # check: hERG current change (%, negative = inhibition) at 10uM of CCOC(=O)Cc1csc(NC(=O)CCCN2C(=O)c3ccccc3C2=O)n1 is greater than or equal to -10%
Output: true

Task: Entry CCOC(=O)C1CCCN(CCC(=O)Nc2ccccc2C)C1.Cl (stereo not shown) : is its hERG current change (%, negative = inhibition) at 10uM no less than -10%?
Output: true

Task: Entry CCc1cc2c(=O)n(Cc3ccco3)c(SCC(=O)N(C)C3CCS(=O)(=O)C3)nc2s1 (stereo not shown) : is its hERG current change (%, negative = inhibition) at 10uM no less than -10%?
Output: false

Task: Hi team, for O=C(O)c1cccc(OS(=O)(=O)c2cc(Br)ccc2Br)c1 , is the recorded hERG current change (%, negative = inhibition) at 10uM at or above -10%?
Output: true

---

biological target: human ether-à-go-go-related gene (hERG) potassium channel (human, UniProt Q12809); assay: primary screen, population patch clamp on CHO cells stably expressing hERG; higher = less effect of the substance;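 note: peak tail current of the secondary pulse compared with the same well before compound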
Sequence (Q12809 whole entry, looked up): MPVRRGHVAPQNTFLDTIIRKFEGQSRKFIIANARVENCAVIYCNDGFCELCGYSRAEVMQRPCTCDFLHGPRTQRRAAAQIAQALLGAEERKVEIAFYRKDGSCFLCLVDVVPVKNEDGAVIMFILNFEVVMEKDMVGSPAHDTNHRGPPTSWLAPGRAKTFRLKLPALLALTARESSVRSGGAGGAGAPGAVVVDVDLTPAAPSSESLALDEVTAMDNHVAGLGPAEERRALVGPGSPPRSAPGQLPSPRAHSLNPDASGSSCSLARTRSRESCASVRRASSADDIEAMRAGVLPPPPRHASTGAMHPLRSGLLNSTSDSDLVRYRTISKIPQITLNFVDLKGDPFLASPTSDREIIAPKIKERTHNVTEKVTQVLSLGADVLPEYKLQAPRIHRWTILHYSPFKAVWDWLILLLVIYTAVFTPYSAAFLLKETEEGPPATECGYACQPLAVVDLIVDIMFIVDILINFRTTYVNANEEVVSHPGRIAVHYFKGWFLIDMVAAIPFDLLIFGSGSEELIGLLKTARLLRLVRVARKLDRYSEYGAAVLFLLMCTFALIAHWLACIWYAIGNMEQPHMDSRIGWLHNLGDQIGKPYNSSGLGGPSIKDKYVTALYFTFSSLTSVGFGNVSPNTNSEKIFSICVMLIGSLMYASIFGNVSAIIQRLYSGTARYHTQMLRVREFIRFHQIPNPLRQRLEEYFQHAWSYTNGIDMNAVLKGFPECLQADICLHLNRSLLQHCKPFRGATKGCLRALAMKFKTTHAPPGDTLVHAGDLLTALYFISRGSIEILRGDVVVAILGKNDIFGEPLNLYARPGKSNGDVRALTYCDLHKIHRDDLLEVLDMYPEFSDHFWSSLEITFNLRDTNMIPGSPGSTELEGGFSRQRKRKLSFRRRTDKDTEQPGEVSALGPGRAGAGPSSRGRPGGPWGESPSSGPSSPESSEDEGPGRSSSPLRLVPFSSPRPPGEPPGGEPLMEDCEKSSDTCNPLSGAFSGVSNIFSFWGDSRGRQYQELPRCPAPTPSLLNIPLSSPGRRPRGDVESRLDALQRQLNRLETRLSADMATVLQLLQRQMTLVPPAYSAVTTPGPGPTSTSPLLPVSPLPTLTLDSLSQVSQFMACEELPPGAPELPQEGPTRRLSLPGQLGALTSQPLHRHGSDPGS
In all, about 310,000 compounds went through this assay and about 14,000 (4.5%) showed an effect of 50% or more. Effects have a minus sign here. The full list was thinned out, with strong results kept by preference.
If the reported hERG current change (%, negative = inhibition) at 10uM equals or exceeds -40%, assign TRUE. If not, assign FALSE.

Task: # bool: hERG current change (%, negative = inhibition) at 10uM of COC(=O)c1ccc2c(=O)n(CCN3CCOCC3)c(SCC(=O)Nc3ccc(C)cc3)nc2c1 >= -40%
Output: FALSE

Task: Can COC(=O)/C=c1\sc2ncnn2c1=O be said to have hERG current change (%, negative = inhibition) at 10uM at or above -40%?
Output: TRUE

Task: Decide: is the reported value of hERG current change (%, negative = inhibition) at 10uM for CCOC(=O)CSc1nc2ccccc2c(=O)n1CC(C)C equal to or greater than -40%?
Output: TRUE

Task: // inclusive: hERG current change (%, negative = inhibition) at 10uM at least -40%? input: Cc1cc(C)n(CCOc2ccc(Br)cc2)n1
Output: TRUE

Task: Dear colleague, could you confirm whether COC(=O)c1ccc2c(=O)n(CCN3CCOCC3)c(SCC(=O)Nc3ccccc3Cl)nc2c1 has hERG current change (%, negative = inhibition) at 10uM at or above -40%?
Output: TRUE

Task: Please indicate if the recorded hERG current change (%, negative = inhibition) at 10uM for CCOC(=O)CSc1nc2ccccc2c(=O)n1CCN1CCOCC1 meets or exceeds -40%.
Output: FALSE
